Numbers sourced from ChEMBL document CHEMBL1127053.

Molecular target: Kappa-type opioid receptor (Mus musculus)
Assay: Antagonist activity towards U50 488 induced kappa opioid receptor by mouse writhing assay at 2.5 mg/kg subcutaneously
Type: functional, organism-based
Parameters: dose 2.5 mg/kg
Classify: fulfilled when AD50 is strictly less than 0.4 mg/kg; not fulfilled when AD50 is not.

Examples with answers:
| Molecule | Test Target | Discrete Label |
| --- | --- | --- |
| C[C@H]1CN(CC[C@@H](O)C2CCCCC2)CC[C@@]1(C)c1cccc(O)c1 | Kappa-type opioid receptor (Mus musculus) | fulfilled |
| C[C@H]1CN(CC[C@H](O)C2CCCCC2)CC[C@@]1(C)c1cccc(O)c1 | Kappa-type opioid receptor (Mus musculus) | fulfilled |
| C=C1CC[C@@]2(O)[C@H]3Cc4ccc(O)c5c4[C@@]2(CCN3CC2CC2)[C@H]1O5 | Kappa-type opioid receptor (Mus musculus) | fulfilled |
| CC(C)CCCCN1CC[C@](C)(c2cccc(O)c2)[C@H](C)C1 | Kappa-type opioid receptor (Mus musculus) | not fulfilled |
| C[C@@H]1CN(CCCc2cccs2)CC[C@]1(C)c1cccc(O)c1 | Kappa-type opioid receptor (Mus musculus) | not fulfilled |
| C[C@H]1CN(CCC(O)c2ccccc2)CC[C@@]1(C)c1cccc(O)c1 (stereo not given in full) | Kappa-type opioid receptor (Mus musculus) | not fulfilled |

Quick check: AD50 of CCCCCCN1CC[C@](C)(c2cccc(O)c2)[C@H](C)C1 under 0.4 mg/kg? fulfilled

Quick check: AD50 of C=C(C)CCCN1CC[C@@](C)(c2cccc(O)c2)[C@@H](C)C1 under 0.4 mg/kg? fulfilled

Quick check: AD50 of C[C@H]1CN(CCC(O)C2CCCC2)CC[C@@]1(C)c1cccc(O)c1 (stereo not given in full) under 0.4 mg/kg? fulfilled

Quick check: AD50 of CC(C)CCN1CC[C@@](C)(c2cccc(O)c2)[C@@H](C)C1 under 0.4 mg/kg? not fulfilled
